experiment: Cytotoxicity against human monocytes assessed as depletion of cellular LDH activity; type: cell-based; set-up: concentration or dose not given beside the values; settings: monocyte
measured.quantity: Activity

[[record]]
compound = "O=c1c(O)c(-c2ccccc2)oc2ccccc12 [FLAVONOL]"
reported = "Non-toxic"

[[record]]
compound = "C[C@@H]1O[C@@H](OC[C@H]2O[C@@H](Oc3cc(O)c4c(c3)O[C@H](c3ccc(O)cc3)CC4=O)[C@H](O)[C@@H](O)[C@@H]2O)[C@H](O)[C@H](O)[C@H]1O [NARIRUTIN]"
reported = "Non-toxic"

[[record]]
compound = "O=c1c(O)c(-c2cc(O)c(O)c(O)c2)oc2cc(O)cc(O)c12 [MYRICETIN]"
reported = "Non-toxic"

[[record]]
compound = "O=c1cc(-c2ccccc2)oc2cc(O)ccc12 [7-HYDROXYFLAVONE]"
reported = "Non-toxic"

